# key: entry, value: IC50
Target: human P2X7 receptor (Homo sapiens, UniProt Q99572, R270H/Y155H)
Assay: Evaluation of human P2X7 receptor inhibitory activity (Yo-Pro uptake, BzATP stimulation, FLIPR TETRA)
Type: cell-based
Conditions: 1321N1 cells stably expressing human P2X7 receptor; BzATP stimulation, Yo-Pro uptake; read-out: IC50 (antagonistic activity for the human P2X7 receptor), class symbol

In the examples that follow, each entry is paired with its recorded IC50.
smiles.representation | target.entity | result
Cc1c(Cl)cccc1Nc1nc(=O)c(CC(=O)NC2CCOCC2)cn1Cc1ccccc1 | human P2X7 receptor (Homo sapiens, UniProt Q99572, R270H/Y155H) | 0.1 to 0.5 µM
COc1cn(Cc2ccc(F)c(Cl)c2)c(Nc2ccc(N(C)C)cc2C)nc1=O | human P2X7 receptor (Homo sapiens, UniProt Q99572, R270H/Y155H) | 0.01 to 0.1 µM
CCc1cc(OC)ccc1Nc1nc(=O)c(OC)cn1Cc1cccc(Cl)c1 | human P2X7 receptor (Homo sapiens, UniProt Q99572, R270H/Y155H) | < 0.01 µM

Next:
So for CCc1ccccc1CNc1nc(=O)c(OC)cn1Cc1cc(F)cc(F)c1 , the logged IC50 turned out to be 0.01 to 0.1 µM

----------
Target: human P2X7 receptor (Homo sapiens, UniProt Q99572, R270H/Y155H)
Assay: Evaluation of human P2X7 receptor inhibitory activity (Yo-Pro uptake, BzATP stimulation, FLIPR TETRA)
Type: cell-based
Conditions: antagonistic activity for the human P2X7 receptor; read-out: IC50
result.type: IC50

In the examples that follow, each entry is paired with its recorded IC50.
molecule | result
COc1cn(Cc2cc(F)c(F)c(F)c2)c(Nc2ccccc2C)nc1=O [Compound I-1097] | 10 to 100 nM
COc1ccc(Nc2nc(=O)c(C#N)cn2Cc2cc(F)c(F)c(F)c2)c(C)c1 [Compound I-1112] | 10 to 100 nM
COCc1ccc(C)c(Nc2nc(=O)c(F)cn2Cc2ccc(F)c(Cl)c2)c1 [Compound I-1085] | < 10 nM
COc1ccc(C)cc1Nc1nc(=O)c(OC)cn1Cc1cc(F)c(F)c(F)c1 [Compound I-0936] | 10 to 100 nM
COc1ccc(C)c(Nc2nc(=O)c(OC)cn2Cc2cccc(Cl)c2)c1 [Compound I-0627] | 10 to 100 nM

IC50 on human P2X7 receptor (Homo sapiens, UniProt Q99572, R270H/Y155H) for COc1ccc(Nc2nc(=O)cnn2Cc2ccc(Cl)c(F)c2)c(C)c1 [Compound I-1268] is 10 to 100 nM

IC50 on human P2X7 receptor (Homo sapiens, UniProt Q99572, R270H/Y155H) for COCc1ccc(C)c(Nc2nc(=O)c(F)cn2Cc2ccc(F)c(F)c2)c1 [Compound I-1084] is < 10 nM

IC50 on human P2X7 receptor (Homo sapiens, UniProt Q99572, R270H/Y155H) for COc1cn(Cc2ccc(F)c(Cl)c2)c(Nc2cc(-c3ccc(C)o3)ccc2C)nc1=O [Compound I-0659] is 10 to 100 nM

----------
# key: entry, value: pIC50
Molecular target: human P2X7 receptor (Homo sapiens, UniProt Q99572, R270H/Y155H)
Assay: Evaluation of human P2X7 receptor inhibitory activity (Yo-Pro uptake, BzATP stimulation, FLIPR TETRA)
Format: cell-based
Conditions: 1321N1 cells stably expressing human P2X7 receptor; BzATP stimulation, Yo-Pro uptake; read-out: IC50 (antagonistic activity for the human P2X7 receptor), class symbol
pIC50: −log10 of the molar value.

In the examples that follow, each entry is paired with its recorded pIC50.
compound | pIC50
COc1cn(Cc2ccccc2OC(F)F)c(Nc2cccc(Cl)c2C)nc1=O [Compound I-0474] | > 8.00
COc1cn(Cc2cc(F)cc(F)c2)c(Nc2cccc(OC(C)C)c2C)nc1=O | 7.00 to 8.00
Cc1ccc(-c2nnco2)cc1Nc1nc(=O)c(F)cn1Cc1ccc(F)c(F)c1 | 7.00 to 8.00
COc1cc(C)cc(Nc2nc(=O)c(OC)cn2Cc2ccc(F)c(Cl)c2)c1C [Compound I-0460] | 7.00 to 8.00
COc1cn(Cc2c(F)cccc2F)c(Nc2cccc(Cl)c2C)nc1=O | 6.30 to 7.00

So for COc1cn(Cc2cc(F)cc(Cl)c2)c(Nc2cccc(C)c2C)nc1=O , the logged pIC50 turned out to be 7.00 to 8.00

So for COc1cn(Cc2ccccc2)c(Nc2cc(-c3ncco3)ccc2C)nc1=O , the logged pIC50 turned out to be 7.00 to 8.00

So for Cc1cccc(Nc2nc(=O)c(Br)cn2Cc2ccccc2)c1C , the logged pIC50 turned out to be 7.00 to 8.00

----------
Target: human P2X7 receptor (Homo sapiens, UniProt Q99572, R270H/Y155H)
Test: Evaluation of human P2X7 receptor inhibitory activity (Yo-Pro uptake, BzATP stimulation, FLIPR TETRA)
Format: cell-based
Conditions: antagonistic activity for the human P2X7 receptor; read-out: IC50
pIC50: −log10 of the molar value.
# key: entry, value: pIC50

In the examples that follow, each entry is paired with its recorded pIC50.
smiles.representation | result
COc1ccc(Nc2nc(=O)c(CO)nn2Cc2cc(F)c(F)c(F)c2)c(C)c1 | > 8.00
COc1cn(Cc2cc(F)cc(F)c2)c(Nc2cc(-c3ccnn3C)ccc2C)nc1=O | 7.00 to 8.00
COc1cc(Nc2nc(=O)c(F)cn2Cc2ccc(F)c(F)c2)c(C)cc1Cl | > 8.00

So for CCOc1cc(C)c(Nc2nc(=O)c(OC)cn2Cc2cc(F)c(F)c(F)c2)cc1F , the logged pIC50 turned out to be 7.00 to 8.00

So for Cc1cc2[nH]ncc2cc1Nc1nc(=O)c(F)cn1Cc1ccc(F)c(F)c1 , the logged pIC50 turned out to be 7.00 to 8.00

So for Cc1ccc(C)c(Nc2nc(=NC#N)c(F)cn2Cc2cc(F)c(F)c(F)c2)c1 , the logged pIC50 turned out to be > 8.00

----------
Molecular target: human P2X7 receptor (Homo sapiens, UniProt Q99572, R270H/Y155H)
Assay: Evaluation of human P2X7 receptor inhibitory activity (Yo-Pro uptake, BzATP stimulation, FLIPR TETRA)
Assay type: cell-based
Conditions: 1321N1 cells stably expressing human P2X7 receptor; BzATP stimulation, Yo-Pro uptake; read-out: IC50 (antagonistic activity for the human P2X7 receptor), class symbol
result.type: IC50

In the examples that follow, each entry is paired with its recorded IC50.
smiles.representation | IC50
COc1cn(Cc2cc(F)cc(F)c2)c(Nc2cccc(Cl)c2C)nc1=O | < 10 nM
COc1cn(Cc2cccc(Cl)c2)c(Nc2cccc(C)c2C)nc1=O | 10 to 100 nM
COc1cn(Cc2ccccc2)c(NCc2ccccc2C(F)(F)F)nc1=O | 500 to 1000 nM

Next:
So for COc1cn(Cc2ccc(F)c(Cl)c2)c(Nc2cccc(N(C)C)c2C)nc1=O , the logged IC50 turned out to be < 10 nM

----------
Biological target: human P2X7 receptor (Homo sapiens, UniProt Q99572, R270H/Y155H)
Assay: Evaluation of human P2X7 receptor inhibitory activity (Yo-Pro uptake, BzATP stimulation, FLIPR TETRA)
Format: cell-based
Conditions: antagonistic activity for the human P2X7 receptor; read-out: IC50
Experimental: Stably expressing cell line (1321N1 cell transfected with the human P2X7 receptor gene (GenBank accession number NM_002562.5 including T606C and G952A SNP)) was used. […] Measurement of fluorescence intensity by FLIPR TETRA was started. […] Changing values of fluorescence intensity by the compound of the present invention were calculated by difference between maximum and minimum fluorescence intensity for 20 minutes. Inhibition ratios (%) were calculated from the following equation: […]
result.type: IC50

smiles.representation | IC50
COc1cn(Cc2ccccc2)c(Nc2cc(-c3cnccn3)ccc2C)nc1=O | 10 to 100 nM

So for COc1cn(Cc2cc(F)c(F)c(F)c2)c(Nc2cc3c(cc2C)OCC3)nc1=O , the logged IC50 turned out to be < 10 nM

So for O=c1nc(Nc2cccc3c(O)cccc23)n(Cc2ccc(F)c(Cl)c2)cc1F , the logged IC50 turned out to be < 10 nM

So for Cc1cc(N2CCOCC2)ccc1Nc1nc(=O)c(C)cn1Cc1cc(F)c(F)c(F)c1 , the logged IC50 turned out to be 10 to 100 nM

So for COc1cn(Cc2cc(F)cc(F)c2)c(Nc2cc3c(cc2C)OCO3)nc1=O , the logged IC50 turned out to be 10 to 100 nM

So for COCc1cn(Cc2cc(F)c(F)c(F)c2)c(Nc2ccc(OC(F)F)cc2C)nc1=O , the logged IC50 turned out to be 10 to 100 nM

So for COc1cc(C)c(Nc2c(Cl)c(=O)c(OC)cn2Cc2ccc(F)c(Cl)c2)cc1C , the logged IC50 turned out to be 100 to 500 nM

So for COc1cn(Cc2ccc(F)c(Cl)c2)c(Nc2cc(OC3CC3)ccc2C)nc1=O , the logged IC50 turned out to be < 10 nM

Source listed as patent US10774051B2.
